# Target under test: T1, KLC2^TPR-myc (wild type) (murine, UniProt O88448 190-479)
# T1 construct: kinesin light chain 2 (KLC2), murine, TPR domain, residues 191-480; also called KLC2^TPR-myc protein; source: E. coli BL21(DE3) Rosetta, purified (His-trap, ULP1 cleavage, SEC); not shown: His6-SUMO, N-terminal, cleaved
# T1 sequence (O88448 190-479): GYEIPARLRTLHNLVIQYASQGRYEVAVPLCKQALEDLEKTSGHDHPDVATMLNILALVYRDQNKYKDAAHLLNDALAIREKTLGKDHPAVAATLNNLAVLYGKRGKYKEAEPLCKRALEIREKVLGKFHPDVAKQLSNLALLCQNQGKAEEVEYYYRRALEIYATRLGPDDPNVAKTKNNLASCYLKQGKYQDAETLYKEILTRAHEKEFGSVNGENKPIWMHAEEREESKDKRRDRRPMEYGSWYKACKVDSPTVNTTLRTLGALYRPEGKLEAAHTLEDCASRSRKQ
# Protocol: fluorescence polarisation; competition: FITC-LFP peptide (300 nM) and KLC2^TPR-myc fixed at 21 μM, 2-fold serial dilutions of unlabelled CSTN-WD1 peptide or Trp-JIP3^LZ; 0.1 M NaCl, 25 mM HEPES, 5 mM MgCl2, 1 mM TCEP, pH 7.5; competitive inhibition model
# Condition info: both partners purified
Readout label: pKi
In textbook form, pKi equals minus log to base ten of the concentration in mol/L.

Problem: Requested read-out: pKi. Entry: Ac-GKENEMDWDDSALTITVN-OH (tryptophan-acidic motif WD1 of calsyntenin-1; also called calsyntenin-1 peptide; tryptophan-acidic peptide; source: synthetic peptide (Peptide Synthesis Laboratory, Francis Crick Institute, UK)) [N-terminally acetylated CSTN-WD1 peptide (Ac-GKENEMDWDDSALTITVN-COOH)]
Solution: 4.95

The origin of these recorded values is paper PMC6224480.
